assay: Viability qHTS for spleen associated tyrosine kinase inhibitor (SYKi) drug resistant MV4-11 cells (AID 1963824); settings: SYKi-resistant MV4-11 viability, CellTiter-Glo, 72 h; series mostly up to 45 µM; further: nearly all actives have a fitted effect of over 35% in size
Inconclusive results are not listed. Active and inactive are the calls of the source. The call rests on the fitted dose curve; in most records, active means well fitted cell-killing curve with a large enough effect; inconclusive means small, poorly fitted or top-dose-only effect, or effect the other way; inactive means no such curve, though single readings can be large or run the other way.
Write down the outcome that applies. Available outcomes: yes (1) = active, no (0) = inactive

q: Record lookup: outcome of this test for `c1cc(N[C@@H]2CCNC2)nc(-c2cnc3ccc(-c4cn[nH]c4)cn23)c1` ?
a: yes (1)

q: Record lookup: outcome of this test for `COc1ccc(CN2CCN(C(=O)CCNC(=O)c3ccc(C(C)(C)C)cc3)CC2)cc1` ?
a: yes (1)

q: Record lookup: outcome of this test for COc1ccc(CC(NC(C)=O)C(=O)O)cc1 (centres undefined) ?
a: no (0)

q: Record lookup: outcome of this test for `CCOC(=O)N1CCC(NCCNC(=O)c2ccccc2C)CC1` ?
a: no (0)

q: Record lookup: outcome of this test for `CN1CCN(CCCNc2ncc(Cl)c(-c3cc4c(C(=O)NC5CC5)cccc4s3)n2)CC1` ?
a: yes (1)

q: Record lookup: outcome of this test for CC1(C)O[C@@]2(C)CC[C@@H]1C[C@@H]2OC1OC(CO)C(O)C(O)C1O (some centres undefined) ?
a: no (0)

q: Record lookup: outcome of this test for `CCc1nnc(NS(=O)(=O)c2ccc(N)cc2)s1` ?
a: no (0)

q: Record lookup: outcome of this test for `CN[C@H](CC(C)C)C(=O)N[C@H]1C(=O)N[C@@H](CC(N)=O)C(=O)N[C@H]2C(=O)N[C@H]3C(=O)N[C@H](C(=O)N[C@H](C(=O)O)c4cc(O)cc(O)c4-c4cc3ccc4O)[C@H](O)c3ccc(c(Cl)c3)Oc3cc2cc(c3O[C@@H]2O[C@H](CO)[C@@H](O)[C@H](O)[C@H]2O[C@H]2C[C@](C)(N)[C@H](O)[C@H](C)O2)Oc2ccc(cc2Cl)[C@H]1O` ?
a: no (0)

q: Record lookup: outcome of this test for `Cc1csc2c(N[C@@H](C)CN3CCN(S(=O)(=O)c4ccc(Cl)c(Cl)c4)CC3)ncnc12` ?
a: yes (1)

q: Record lookup: outcome of this test for `C[C@H](O)[C@H](O)[C@H]1CNc2nc(N)[nH]c(=O)c2N1` ?
a: no (0)

q: Record lookup: outcome of this test for `Cc1ccc2ccc(Cl)cc2n1` ?
a: no (0)

q: Record lookup: outcome of this test for `Oc1ccc(/C=C/c2cc(O)cc(O)c2)cc1` ?
a: yes (1)

q: Record lookup: outcome of this test for `C[N+](C)(C)CCCCCCCCCC[N+](C)(C)C` ?
a: no (0)

q: Record lookup: outcome of this test for `O=c1[nH]cnc2c([C@@H]3N[C@H](CO)[C@@H](O)[C@H]3O)c[nH]c12` ?
a: no (0)

q: Record lookup: outcome of this test for `COc1ccc2cc1Oc1ccc(cc1)C[C@H]1c3c(cc4c(c3Oc3cc5c(cc3OC)CCN(C)[C@@H]5C2)OCO4)CCN1C` ?
a: yes (1)

q: Record lookup: outcome of this test for `CC(C)(Sc1cc(C(C)(C)C)c(O)c(C(C)(C)C)c1)Sc1cc(C(C)(C)C)c(O)c(C(C)(C)C)c1` ?
a: no (0)

q: Record lookup: outcome of this test for `Oc1ccc(Cl)c2cccnc12` ?
a: no (0)

q: Record lookup: outcome of this test for `CC(C)C(=O)Oc1ccc(CO)cc1[C@H](CCN(C(C)C)C(C)C)c1ccccc1` ?
a: no (0)

q: Record lookup: outcome of this test for `CC(=O)OCC(CCn1cnc2cnc(N)nc21)COC(C)=O` ?
a: no (0)

q: Record lookup: outcome of this test for `Cn1c(=O)c(-c2c(Cl)cccc2Cl)cc2cnc(Nc3cccc(C(=O)O)c3)nc21` ?
a: yes (1)

q: Record lookup: outcome of this test for O=C(O)CSCC(=O)NC1CCSC1=O (centres undefined) ?
a: no (0)

q: Record lookup: outcome of this test for `CC(=NNC(=O)c1cccc(S(=O)(=O)N2CCOCC2)c1)c1cc(Cl)ccc1O` ?
a: yes (1)

q: Record lookup: outcome of this test for `CCn1c2ccccc2c2cc(Nc3ccnc(NCCCN4CCOCC4)n3)ccc21` ?
a: yes (1)

q: Record lookup: outcome of this test for `CC(=O)Nc1ccc([C@H](C)C(=O)Nc2ncc(C(C)C)s2)cc1` ?
a: yes (1)

q: Record lookup: outcome of this test for CC1(C)CC[C@]2(C(=O)O)CC[C@]3(C)C(=CCC4[C@@]5(C)C[C@H](O)[C@H](O[C@@H]6O[C@H](CO)[C@@H](O)[C@H](O)[C@H]6O)[C@@](C)(CO)C5[C@H](O)C[C@]43C)[C@@H]2C1 (some centres undefined) ?
a: no (0)

q: Record lookup: outcome of this test for `COc1cc(C(=O)OCCCN2CCCN(CCCOC(=O)c3cc(OC)c(OC)c(OC)c3)CC2)cc(OC)c1OC` ?
a: yes (1)

q: Record lookup: outcome of this test for COc1c2cc(c(O)c1OC)CCCCC(O)CCc1ccc(O)c-2c1 (centres undefined) ?
a: yes (1)

q: Record lookup: outcome of this test for `C[C@@H]1C[C@@H](O)[C@@]23CO[C@@H](O)[C@@H]2CCC[C@@H]3[C@@]12C[C@@H](c1ccoc1)OC2=O` ?
a: no (0)

q: Record lookup: outcome of this test for C=C(C(=O)O)C1CCC2(C)CCC(O)C(C)(O)C2C1 (centres undefined) ?
a: no (0)

q: Record lookup: outcome of this test for `Nc1ccc(-c2cnc(N)c(-c3ccc(Cl)cc3)c2)cn1` ?
a: yes (1)

q: Record lookup: outcome of this test for `NC(=O)N1c2ccccc2C=Cc2ccccc21` ?
a: no (0)

q: Record lookup: outcome of this test for O=C(OC1CN2CCC1CC2)N1CCc2ccccc2C1c1ccccc1 (centres undefined) ?
a: yes (1)

q: Record lookup: outcome of this test for `C=C1[C@H](OC(C)=O)[C@H]2[C@@H](OC(=O)c3ccccc3)[C@@H](C)C[C@]2(O)[C@@H](OC(C)=O)[C@H](C)/C=C/C(C)(C)C(=O)[C@H](OC(C)=O)[C@H]1OC(C)=O` ?
a: no (0)

q: Record lookup: outcome of this test for `O[C@@H]1CO[C@H]2[C@@H]1OC[C@@H]2O` ?
a: no (0)

q: Record lookup: outcome of this test for `CC/C=C\C[C@H]1C(=O)C=C[C@@H]1CCCCCCCC(=O)O` ?
a: yes (1)

q: Record lookup: outcome of this test for C[C@H]1CC[C@@]2(OC1)O[C@H]1CC3C4CC[C@H]5C[C@@H](O)[C@H](O)C[C@]5(C)C4=CC(=O)[C@]3(C)[C@H]1[C@@H]2C (some centres undefined) ?
a: no (0)

q: Record lookup: outcome of this test for `CCNC(=O)Nc1ncc(-c2cc(-c3c(C)cc(OC)cc3C)nc(-c3cnccn3)n2)s1` ?
a: no (0)

q: Record lookup: outcome of this test for `CN1CCC(NC(=O)c2cc(-c3c(O)cc(O)cc3Oc3ccc([N+](=O)[O-])cc3)on2)CC1` ?
a: yes (1)

q: Record lookup: outcome of this test for `Cc1cc(-c2ccc(/C=C3\SC(=Nc4ccc(Cl)c(C(=O)O)c4)NC3=O)o2)c([N+](=O)[O-])cc1C` ?
a: no (0)

Reference source: PubChem BioAssay (NCATS)
